- tgt: human GHS-R 1a (Homo sapiens, UniProt Q92847)
- Sequence (Q92847 whole entry): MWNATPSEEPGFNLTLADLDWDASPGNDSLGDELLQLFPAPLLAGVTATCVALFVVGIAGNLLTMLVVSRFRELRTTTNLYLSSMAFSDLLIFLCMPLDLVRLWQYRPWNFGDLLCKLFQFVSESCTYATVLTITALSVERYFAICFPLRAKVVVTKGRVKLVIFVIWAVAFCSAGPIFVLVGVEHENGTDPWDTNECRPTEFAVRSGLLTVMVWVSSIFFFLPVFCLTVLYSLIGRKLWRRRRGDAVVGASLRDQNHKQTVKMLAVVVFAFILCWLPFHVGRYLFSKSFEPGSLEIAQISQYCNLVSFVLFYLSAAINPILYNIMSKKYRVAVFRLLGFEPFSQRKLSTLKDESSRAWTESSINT
- protocol_description: GHS-R 1a receptor-ligand binding assay (membrane preparations from transfected LLC PK-1 cells)
- experimental_conditions: displacement of 125I-His9-ghrelin; plasma membranes of LLC PK-1 cells transiently transfected with human GHS-R 1a; mean of at least two independent experiments in triplicates
assay_metric: IC50 (nM)

Example results:
{"smiles_record": "O=C(N[C@H](Cc1c[nH]c2ccccc12)c1nnc(CCc2c[nH]c3ccccc23)n1Cc1cccc2ccccc12)c1cnccn1", "IC50, nM": 122}
{"smiles_record": "NCCCC(=O)N[C@H](Cc1c[nH]c2ccccc12)c1nnc(CCc2c[nH]c3ccccc23)n1Cc1cccc2ccccc12", "IC50, nM": 0.27}
{"smiles_record": "COc1ccc(Cn2c(CCc3ccccc3)nnc2[C@@H](Cc2cccc3ccccc23)NC(=O)c2ccccn2)cc1", "IC50, nM": 1.45}
{"smiles_record": "O=C(N[C@H](Cc1c[nH]c2ccccc12)c1nnc(CCc2c[nH]c3ccccc23)n1Cc1cccc2ccccc12)[C@@H]1CCCN1", "IC50, nM": 505}
{"smiles_record": "O=C(N[C@H](Cc1c[nH]c2ccccc12)c1nnc(CCc2ccccc2)n1Cc1cccc2ccccc12)C1CCNCC1", "IC50, nM": 17}

a: O=C(Cc1ccccn1)N[C@H](Cc1c[nH]c2ccccc12)c1nnc(CCc2ccccc2)n1Cc1cccc2ccccc12
b: O=C(N[C@H](Cc1c[nH]c2ccccc12)c1nnc(CCc2c[nH]c3ccccc23)n1Cc1cccc2ccccc12)C1CCOCC1
c: NC1(C(=O)N[C@H](Cc2c[nH]c3ccccc23)c2nnc(CCCc3c[nH]c4ccccc34)n2Cc2ccccc2)CCNCC1
(Q) Give the ascending ranking of the items by reported IC50. Would you mind listing the labels in the order requested?
(A) c, a, b
(c: 35 nM, a: 107 nM, b: 180 nM)

a: O=C(Cc1ccccn1)N[C@H](Cc1c[nH]c2ccccc12)c1nnc(CCc2c[nH]c3ccccc23)n1Cc1cccc2ccccc12
b: COc1ccc(Cn2c(CCc3ccccc3)nnc2[C@@H](Cc2c[nH]c3ccccc23)NC(=O)C2CCOCC2)c(OC)c1
c: COc1ccc(Cn2c(CCc3ccccc3)nnc2[C@@H](Cc2c[nH]c3ccccc23)NC(=O)C2(N)CCNCC2)cc1
d: COc1ccc(Cn2c(CCc3ccccc3)nnc2[C@@H](Cc2c[nH]c3ccccc23)NC(=O)c2cccc(CN)c2)c(OC)c1
(Q) Order the records so the highest IC50 appears first and the lowest last. Would you mind listing the labels in the order requested?
(A) d, a, b, c

====

- tgt: human GHS-R 1a (Homo sapiens, UniProt Q92847)
- protocol_description: In vitro intracellular calcium release assay using human GHS-R 1a transfected CHO cells
- experimental_conditions: agonists, dose-response curve of intracellular calcium release
assay_metric: EC50 (nM)

I: O=C(N[C@H](Cc1c[nH]c2ccccc12)c1nnc(CCCc2c[nH]c3ccccc23)n1Cc1ccccc1)C1CCNCC1
II: CC(C)(N)C(=O)N[C@H](Cc1c[nH]c2ccccc12)c1nnc(CCCc2c[nH]c3ccccc23)n1Cc1ccccc1
III: O=C(N[C@H](Cc1c[nH]c2ccccc12)c1nnc(CCc2c[nH]c3ccccc23)n1Cc1cccc2ccccc12)[C@@H]1CCCN1
(Q) Order by EC50, ascending. Would you mind listing the labels in the order requested?
(A) I, III, II
(I: 1.6 nM, III: 2.7 nM, II: 34 nM)

====

- tgt: human GHS-R 1a (Homo sapiens, UniProt Q92847)
- protocol_description: In vitro intracellular calcium release assay using human GHS-R 1a transfected CHO cells
- Type: cell-based
- Parameters: expressed in transfected cells; host or cells: CHO-K1 Chinese hamster ovary cells (ATCC No. CCL-61), transient transfection by electroporation
- experimental_conditions: intracellular calcium release, compound at 10^-6 M, relative to basal level (0%) and 1 μM ghrelin (100%)
assay_metric: activation at 1 µM (%)

Example results:
{"compound": "CC(C)(N)C(=O)N[C@H](Cc1c[nH]c2ccccc12)c1nnc(CCCc2c[nH]c3ccccc23)n1Cc1ccccc1 [Compound 42]", "tgt": "human GHS-R 1a (Homo sapiens, UniProt Q92847)", "activation at 1 µM (%)": 100}
{"compound": "COc1ccc(Cn2c(CCc3ccccc3)nnc2[C@@H](Cc2c[nH]c3ccccc23)NC(=O)C2(N)CCNCC2)c(OC)c1 [Compound 10]", "tgt": "human GHS-R 1a (Homo sapiens, UniProt Q92847)", "activation at 1 µM (%)": 100}

P: COc1ccc(Cn2c(CCc3ccccc3)nnc2[C@@H](Cc2c[nH]c3ccccc23)NC(=O)c2cccc(CN)c2)c(OC)c1 [Compound 6]
Q: COc1ccc(Cn2c(CCc3c[nH]c4ccccc34)nnc2[C@H](Cc2c[nH]c3ccccc23)NC(=O)c2cnccn2)cc1 [Compound 29]
R: O=C(N[C@H](Cc1c[nH]c2ccccc12)c1nnc(Cc2ccccc2)n1Cc1ccc(Cl)c(Cl)c1)[C@@H]1CCCN1 [Compound 35]
(Q) Give the ascending ranking of the items by reported activation at 1 µM. Would you mind listing the labels in the order requested?
(A) Q, P, R

====

- tgt: human GHS-R 1a (Homo sapiens)
- protocol_description: In vitro intracellular calcium release assay using human GHS-R 1a transfected CHO cells
- Format: cell-based
- Parameters: expressed in transfected cells; host or cells: CHO-K1 Chinese hamster ovary cells (ATCC No. CCL-61), transient transfection by electroporation
- experimental_conditions: agonists, dose-response curve of intracellular calcium release
pEC50: −log10 of the molar value.
assay_metric: pEC50

P: O=C(N[C@H](Cc1c[nH]c2ccccc12)c1nnc(CCc2ccccc2)n1Cc1cccc2ccccc12)C1CCNCC1
Q: O=C(N[C@H](Cc1c[nH]c2ccccc12)c1nnc(CCCc2c[nH]c3ccccc23)n1Cc1cccc2ccccc12)C1CCNCC1
R: NC1(C(=O)N[C@H](Cc2c[nH]c3ccccc23)c2nnc(CCc3ccccc3)n2Cc2cccc3ccccc23)CCNCC1
S: NC1(C(=O)N[C@H](Cc2c[nH]c3ccccc23)c2nnc(CCc3c[nH]c4ccccc34)n2Cc2cccc3ccccc23)CCNCC1
(Q) Order by pEC50, ascending. Would you mind listing the labels in the order requested?
(A) R, S, P, Q
